Reported IC50 is given for each of the following compounds.
# STUDY SYSTEM: truncated human beta-secretase (residues 1-458, His6-tagged at the C-terminus) (Homo sapiens, UniProt P56817)
# Construct: truncated human beta-secretase (residues 1-458, His6-tagged at the C-terminus); His6 (C); made in house; host or cells: insect cells D. melanogaster S2 (baculovirus expression system (so in the source))
# Sequence (P56817 22-458): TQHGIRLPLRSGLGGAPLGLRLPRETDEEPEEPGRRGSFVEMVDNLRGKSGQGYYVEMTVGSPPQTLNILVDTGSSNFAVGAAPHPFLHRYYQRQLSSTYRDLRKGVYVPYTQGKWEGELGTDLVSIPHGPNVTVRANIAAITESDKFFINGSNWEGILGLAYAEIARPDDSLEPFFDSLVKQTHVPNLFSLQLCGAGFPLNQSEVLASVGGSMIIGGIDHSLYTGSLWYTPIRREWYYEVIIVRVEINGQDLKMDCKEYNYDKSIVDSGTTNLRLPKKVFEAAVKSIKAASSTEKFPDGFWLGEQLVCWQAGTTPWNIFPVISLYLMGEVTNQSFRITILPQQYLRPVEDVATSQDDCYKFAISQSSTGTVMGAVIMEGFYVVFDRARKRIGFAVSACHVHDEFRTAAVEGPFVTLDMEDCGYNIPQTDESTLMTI
# ASSAY PROTOCOL: BACE fluorescence quench assay
# Assay type: biochemical
# SETUP CONDITIONS: in vitro enzyme activity, BACE fluorescence assay, pH 4.5; read-out: IC50

CN1C(=O)[C@@]2(C[C@@]3(CCCOC3)Oc3ccc(-c4cccc(OC(F)(F)F)c4)cc32)N=C1N : 500 to 1000 nM
CN1C(=O)C2(CC(c3cccnc3)Oc3ccc(-c4cccc(C#N)c4)cc32)N=C1N (stereo not drawn) : 1000 to 5000 nM
CN1OC2(CC3(CCCCOC3)Oc3ccc(-c4cccc(C#N)c4)cc32)N=C1N (stereo not drawn) : 500 to 1000 nM
CC(C)=CC(CCO)[C@@H]1C[C@@]2(N=C(N)N(C)O2)c2cc(-c3cccc(C(F)(F)F)c3)ccc2O1 (stereo partly drawn) : 10000 to 50000 nM
CN1C(=O)[C@@]2(C[C@]3(CCCOC3)Oc3ccc(-c4cccc(C#N)c4)cc32)N=C1N [Compound 72a] : 1 to 100 nM
CN1OC2(CC(C3CCCC3)Oc3ccc(-c4cccc(C#N)c4)cc32)N=C1N (stereo not drawn) : 1000 to 5000 nM

Enquiry: Please indicate IC50 recorded for `CCOc1ccc(Cl)cc1-c1ccc2c(c1)[C@]1(C[C@@]3(CCCOC3)O2)N=C(N)N(C)C1=O`
Return: 1000 to 5000 nM

Enquiry: Please indicate IC50 recorded for `CN1C(=O)[C@@]2(C[C@]3(CCCOC3)Oc3ccc(-c4cccc(C#N)n4)cc32)N=C1N`
Return: 1000 to 5000 nM

Enquiry: Please indicate IC50 recorded for CN1OC2(CC(C3CCOC(C)(C)C3)Oc3ccc(-c4cccc(C(F)(F)F)c4)cc32)N=C1N (stereo not drawn)
Return: 100 to 500 nM

Enquiry: Please indicate IC50 recorded for `CN1C(=O)[C@@]2(C[C@@]3(CCCOC3)Oc3ccc(-c4cccc(Cl)n4)cc32)N=C1N`
Return: 5000 to 10000 nM

---

Reported IC50 is given for each of the following compounds.
# STUDY SYSTEM: truncated human beta-secretase (residues 1-458, His6-tagged at the C-terminus) (Homo sapiens)
# Construct: truncated human beta-secretase (residues 1-458, His6-tagged at the C-terminus); His6 (C); made in house; host or cells: insect cells D. melanogaster S2 (baculovirus expression system (so in the source))
# ASSAY PROTOCOL: BACE fluorescence quench assay
# Format: biochemical
# SETUP CONDITIONS: in vitro enzyme activity, BACE fluorescence assay, pH 4.5; read-out: IC50

Some solved cases for reference:
COc1ccc2c(c1)CCC[C@@]1(C2)C[C@@]2(N=C(N)N(C)O2)c2cc(-c3cccc(C#N)c3)ccc2O1 [Compound 311] : 100 to 500 nM
CN1OC2(CC(C3CCOC(C)(C)C3)Oc3ccc(-c4cc(F)cc(F)c4)cc32)N=C1N (stereo not shown) [Compound 339] : 100 to 500 nM
CC(C)C1CCC2(C1)CC1(N=C(N)N(C)O1)c1cc(-c3cccc(C#N)c3)ccc1O2 (stereo not shown) [Compound 121] : 1000 to 5000 nM

Pending compound:
Enquiry: Please indicate IC50 recorded for CN1OC2(CC(C3CCOC(C)(C)C3)Oc3ccc(-c4cccc(-n5ccnc5)n4)cc32)N=C1N (stereo not shown) [Compound 400]
Return: 1000 to 5000 nM
